# MEASURED TARGET: human dopamine transporter (hDAT) (Homo sapiens, UniProt Q01959)
# Construct: Tatsumi et al. 1997
# Sequence (Q01959 whole entry): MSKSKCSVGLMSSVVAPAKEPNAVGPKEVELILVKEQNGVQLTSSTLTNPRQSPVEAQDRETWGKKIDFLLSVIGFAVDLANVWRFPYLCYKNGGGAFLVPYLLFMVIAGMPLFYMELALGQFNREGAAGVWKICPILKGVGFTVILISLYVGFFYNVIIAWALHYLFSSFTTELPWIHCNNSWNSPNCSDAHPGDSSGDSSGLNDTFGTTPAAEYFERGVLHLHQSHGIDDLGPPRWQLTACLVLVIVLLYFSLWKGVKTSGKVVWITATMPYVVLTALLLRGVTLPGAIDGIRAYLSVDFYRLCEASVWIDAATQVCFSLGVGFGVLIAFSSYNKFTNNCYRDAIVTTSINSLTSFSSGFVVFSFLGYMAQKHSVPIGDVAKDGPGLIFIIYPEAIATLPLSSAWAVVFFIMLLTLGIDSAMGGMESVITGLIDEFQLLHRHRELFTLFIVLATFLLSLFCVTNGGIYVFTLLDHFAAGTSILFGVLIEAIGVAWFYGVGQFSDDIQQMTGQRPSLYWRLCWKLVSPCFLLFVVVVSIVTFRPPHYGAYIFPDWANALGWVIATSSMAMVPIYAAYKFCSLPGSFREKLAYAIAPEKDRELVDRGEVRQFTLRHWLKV
# ASSAY PROTOCOL: Screening for compounds active at human dopamine transporter, scintillation proximity assay (SPA)
# CONDITION: competition with [3H]-Vanoxerine; HEK-293 cells expressing recombinant hDAT
# Experimental: This assay was used to determine the affinity of ligands for the dopamine transporter by competition with [^3H]-Vanoxerine. HEK-293 cells (Tatsumi et al., Eur. J. Pharmacol. 1997, 30, 249-258) stably expressing recombinant hDAT were maintained with media (DMEM hi glucose with 10% FBS, 300 μg/ml G418 and 2 mM L-Glutamine) and incubated at 37° C. with 5% CO2. […] The % inhibition was calculated for each compound tested [(Compound CPM at maximum concentration-Non-Specific CPM)/Total CPM*100]. […]
QUANTITY: Ki

Task: Fill in the recorded Ki for this compound, with human dopamine transporter (hDAT) (Homo sapiens, UniProt Q01959) as test system: NS(=O)(=O)c1cccc(CN(c2ccc3[nH]ccc3c2)C2CCNCC2)c1
Output: ~10 nM

src = patent US8093285B2
